Quick reference: growth of the listed items.
- Tested on: SF-268 CNS
- Run Description: NCI-60 one-dose screen, 48 h (100 = growth as untreated, 0 = no growth, -100 = all killed)
- Condition Summary: 10 µM unless noted
Compounds without any hit were thinned out: in the full panel of roughly 83,000, 20% have a hit.
Recorded Metric: growth (%)

>>> df
                                   compound  assay_system  units_label  quantitative_result
0  COc1ccc(NC(=O)c2sc3nc(-c4cnccn4)cc(-c4cccs4)c3c2N)cc1    SF-268 CNS            %                   81
1  Clc1ccc2c(OCCCN3CCOCC3)c3oc4ccccc4c3nc2c1    SF-268 CNS            %                 38.3
2  CS(=O)(=O)c1ccc(-c2nc3ccccn3c2/C=N/Nc2nc(-c3ccc(Br)cc3)cs2)cc1    SF-268 CNS            %                  108
3  O=C(CSc1nc2sc3c(c2c(=O)n1-c1ccc(Cl)cc1)CCCC3)NNC(=O)Nc1cccc(C(F)(F)F)c1    SF-268 CNS            %                 40.8
4  OC1CCN(CCCOc2c3ccccc3nc3c2oc2ccc(Cl)cc23)CC1    SF-268 CNS            %                 22.8
5  Nc1c(C(=O)Nc2ccc(C(F)(F)F)cc2)sc2nc(-c3cnccn3)cc(-c3cccs3)c12    SF-268 CNS            %                 78.6
6  O=C1NC(=C(Cl)Cl)/C(=N/S(=O)(=O)N2CCCCC2CC2(C(F)(F)F)N=N2)N1 (stereo not drawn)    SF-268 CNS            %                 49.3
7  CCCC(=O)NC(c1ccc(N(CC)CC)cc1)c1cc(C)c2cccnc2c1O (stereo not drawn)    SF-268 CNS            %                 27.6

###

- Test system: M14 melanoma
- Run Description: NCI-60 one-dose screen, 48 h
- Condition Summary: 10 µM unless noted
The panel holds about 83,000 compounds, 20% with a hit somewhere; the sample as a whole holds those more often. The source made the active and inactive calls. The calls were made as follows: active = growth percent below 10; inactive = the rest.
Classes used: active, inactive

>>> df
                                    molecule  assigned_label
 0  CCOC(=O)c1c(Nc2ccccc2)nn2c(-c3ccco3)c(C#N)cnc12        inactive
 1  N#Cc1c(-c2ccc(Cl)cc2)nc(SCc2ccccc2)nc1N1CCNCC1        inactive
 2  COC(=O)C1CN(S(=O)(=O)/N=C2\NC(=O)NC2=C(Cl)Cl)C1        inactive
 3  CSc1ccc2c(c1)N(C(=O)/C(C#N)=C/c1c[nH]c3ccccc13)c1ccccc1S2        inactive
 4  O=C(CSc1nc2sc3c(c2c(=O)n1-c1ccc(Cl)cc1)CCCC3)NNC(=O)Nc1cccc(C(F)(F)F)c1        inactive
 5  O=C(O)CCCCCN1C(=O)/C(=C/c2ccc(O)c(O)c2)SC1=S        inactive
 6  OC1CCN(CCCOc2c3ccc(Cl)cc3nc3c2oc2ccccc23)CC1          active
 7  Cc1sc2c(c1C)c(=O)nc1c(-c3nc(-c4ccc(F)cc4)no3)n[nH]n12        inactive
 8   C=CCSc1ccc2c(c1)C(N1CCNCC1)=Nc1ccccc1O2        inactive
 9  Cc1nc(-c2cc3ccccc3oc2=O)ccc1C(=O)/C=C/c1ccc(N2CCOCC2)cc1        inactive
10  O=c1/c(=C\c2ccc(-c3ccccc3)o2)sc2nc(-c3ccccc3)nn12        inactive
11  CN(C)c1ccc(/C=C2\Cc3c(F)ccc(Br)c3C2=O)cc1        inactive

###

- System: OVCAR-4 ovarian
- Run Description: NCI-60 one-dose screen, 48 h (100 = growth as untreated, 0 = no growth, -100 = all killed)
- Condition Summary: 10 µM unless noted
This is part of a sample that, as a whole, favours compounds with a hit. Of some 83,000 tested, about 20% had one in any assay.
Recorded Metric: growth (%)

In [3]: df
Out[3]:
                                   molecule  units_label  quantitative_result
0  CC(C)NC(=O)c1cc(-c2ccc(NC(=O)Nc3ccc(N4CCOCC4)c(C(F)(F)F)c3)cc2)nc2cccnc12            %                 71.7
1  O=C(CCCN1C(=O)/C(=C/c2ccccc2F)SC1=S)N1CCOCC1            %                 88.4
2  COc1cc(OC)c(S(=O)(=O)NNC(=O)c2ccncc2)cc1C(=O)/C=C/c1ccc(C)cc1            %                 91.3

###

- Test system: COLO 205 colon
- Run Description: NCI-60 one-dose screen, 48 h (100 = growth as untreated, 0 = no growth, -100 = all killed)
- Condition Summary: 10 µM unless noted
- Procedure: Cells are grown in 96 well plates and exposed to the test compound for 48 hours. Compounds are tested at a single concentration, which is 10^-5 M for most compounds. The reported endpoint is percent growth (GI% or GIPRCNT), where numbers from 0 - 100% represent growth inhibition, and numbers from -100% - 0 represent cell death. For example, a value of 40 represents 60% growth inhibition. A value of 0 means no net growth occurred over the course of the experiment. […]
About 83,000 compounds went through this panel and 20% of them were active in at least one assay; those are over-represented in the sample as a whole.
Quick reference: growth of the listed items.
Recorded Metric: growth (%)

                                    compound  recorded_metric  units_label  quantitative_result
 0  O=C(CCN1C(=O)/C(=C/c2ccccc2)SC1=S)N1CCOCC1           growth            %                  119
 1  CN(C)CCCOc1c2ccc(Cl)cc2nc2c1oc1ccc(Cl)cc12           growth            %                -11.1
 2  COc1ccc(-c2nc3ccc(-c4nnc(SCC(=O)Nc5ccc(C(C)=O)cc5)o4)cc3[nH]2)cc1           growth            %                  113
 3  CC(=O)Oc1ccccc1C(=O)Nc1ccc(C(=O)/C=C/c2cccs2)cc1           growth            %                  126
 4  COc1ccc(-c2nc3ccc(-c4nnc(SCC(=O)Nc5ccc(C(=O)/C=C/c6ccc(Cl)cc6)cc5)o4)cc3[nH]2)cc1OC           growth            %                  116
 5  O=C(CSc1nc2sc3c(c2c(=O)n1-c1ccc(Cl)cc1)CCCC3)NNC(=O)Nc1cccc(C(F)(F)F)c1           growth            %                   27
 6  Nc1cc(-c2c[nH]c3ccc(F)cc23)nc2cc(-c3c[nH]c4ccc(F)cc34)nn12           growth            %                  118
 7    Cc1cccc(/C=C/c2nn3c(-c4ccco4)nnc3s2)c1           growth            %                  107
 8  O=C(CSc1nc2sc3c(c2c(=O)n1-c1ccc(Cl)cc1)CCCC3)NNC(=O)Nc1ccc(Cl)c(C(F)(F)F)c1           growth            %                 53.4
 9  C#Cc1nc(C2=C(C)C(OC(C)=O)/C(=N/OC(C)=O)C2)cs1 (configuration not stated)           growth            %                 51.3
10  Cc1ccc(-c2nc(C(Cl)Cl)nc3cc(-c4ccccc4)nn23)cc1           growth            %                -69.4
11   CN(C)c1ccc(/C=c2\sc3nc4ccccc4n3c2=O)cc1           growth            %                  111

###

- Tested on: PC-3 prostate
- Run Description: NCI-60 one-dose screen, 48 h
- Condition Summary: 10 µM unless noted
- Method: Growth inhibition of the PC-3 human tumor cell line is measured as a screen for anti-cancer activity. Cells are grown in 96 well plates and exposed to the test compound for 48 hours. Compounds are tested at a single concentration, which is 10^-5 M for most compounds. The reported endpoint is percent growth (GI% or GIPRCNT), where numbers from 0 - 100% represent growth inhibition, and numbers from -100% - 0 represent cell death. For example, a value of 40 represents 60% growth inhibition. […]
About 83,000 compounds went through this panel and 20% of them were active in at least one assay; those are over-represented in the sample as a whole. Activity calls are given as the source filed them. The calls were made as follows: active = growth percent below 10; inactive = the rest.
Classes used: active, inactive

>>> df
                                   molecule  assigned_label
0  OC1CCc2c(-c3ccc4ncnc(N5CCc6cc(F)c(Cl)cc65)c4c3)cncc21 (centres undefined)        inactive
1  C#Cc1nc(C2=C(C)C(OC(=O)CCC(=O)O)CC2)cs1 (centres undefined)        inactive
2  Clc1ccc2c(NCCCN3CCOCC3)c3oc4ccccc4c3nc2c1        inactive
3  NS(=O)(=O)c1cccc(Nc2nc(SCC(=O)c3ccc([N+](=O)[O-])cc3)nc3ccccc23)c1        inactive
4  COc1cccc(OC)c1-c1nnn(C)c1C(=S)N1CCN(c2ccc([N+](=O)[O-])cc2Cl)CC1        inactive
5  COc1cc2nc(-c3ccc(C)cc3)cc(OCCCNCC3CCCO3)c2cc1OC (centres undefined)        inactive
6  CCN1C(=S)N(c2ccccc2)C2NC(=O)N(/N=C/C=C/c3ccccc3OC)C21 (centres undefined)        inactive
7    COc1ccc(/C=N/Nc2ccnc3cc(Cl)ccc23)cc1Cl          active
8  Clc1ccc2c(NCCCN3CCOCC3)c3oc4ccc(Cl)cc4c3nc2c1        inactive

Numbers sourced from PubChem BioAssay (NCI).
